- assay-info: in vitro
- Type: cell-based
- assay-conditions: human
*1 amine or outer side, *2 acyl side, *3 side chain or, on linkers, in order; H or OH if unused. Where a SMILES comes first, the peptide text is derived from it. The star is where a group is joined. NH(CH2)3(OCH2CH2)2O(CH2)3NH = C(CN[*:1])COCCOCCOCCCN[*:2]; Palmitoyl = CCCCCCCCCCCCCCCC(=O)*
Give measured HC50 at 1 hour for each item. Keep answers brief.

Field HC50 at 1 hour (entry CCCCCCCCCCCCCCCC(=O)N[C@@H](CCCCN)C(=O)N[C@@H](C)C(=O)N[C@@H](CCC(N)=O)C(=O)N[C@@H](CCCCN)C(=O)N[C@@H](CCCNC(=N)N)C(=O)N[C@@H](Cc1ccccc1)C(=O)NCCCOCCOCCOCCCN [Example 3, Palm-KAQKRF-NH—(CH2)3—(OCH2CH2)3—CH2—NH2] (Palmitoyl-KAQKRF-{NH(CH2)3(OCH2CH2)2O(CH2)3NH}) ) reads > 500 µg/mL

Field HC50 at 1 hour (entry CC(=O)N[C@@H](CCCCN)C(=O)N[C@@H](C)C(=O)N[C@@H](CCC(N)=O)C(=O)N[C@@H](CCCCN)C(=O)N[C@@H](CCCNC(=N)N)C(=O)N[C@@H](Cc1ccccc1)C(N)=O [Example 1, Ac-KAQKRF-NH2] (Ac-KAQKRF-NH2) ) reads > 500 µg/mL

Field HC50 at 1 hour (entry CCCCCCCCCCCCCCCC(=O)N[C@@H](CCCCN)C(=O)N[C@@H](C)C(=O)N[C@@H](CCC(N)=O)C(=O)N[C@@H](CCCCN)C(=O)N[C@@H](CCCNC(=N)N)C(=O)N[C@@H](Cc1ccccc1)C(N)=O [Example 2, Palm-KAQKRF-NH2] (Palmitoyl-KAQKRF-NH2) ) reads > 500 µg/mL
